- tgt: human mAChR M4 (Homo sapiens)
- Construct: expressed in transfected cells
- Sequence (P08173 1-479): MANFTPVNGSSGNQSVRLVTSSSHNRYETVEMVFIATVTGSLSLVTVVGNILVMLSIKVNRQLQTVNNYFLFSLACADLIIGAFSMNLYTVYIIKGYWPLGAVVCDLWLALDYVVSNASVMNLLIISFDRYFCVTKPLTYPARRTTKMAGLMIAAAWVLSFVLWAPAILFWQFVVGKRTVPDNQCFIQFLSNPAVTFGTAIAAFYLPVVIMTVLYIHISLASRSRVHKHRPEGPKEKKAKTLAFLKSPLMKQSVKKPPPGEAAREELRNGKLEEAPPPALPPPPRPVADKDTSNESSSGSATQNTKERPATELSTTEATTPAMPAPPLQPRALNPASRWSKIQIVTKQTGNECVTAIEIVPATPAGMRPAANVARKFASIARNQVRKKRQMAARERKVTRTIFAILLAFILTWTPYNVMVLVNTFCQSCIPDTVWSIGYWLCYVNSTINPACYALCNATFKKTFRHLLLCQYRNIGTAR
- procedureDetails: mAChR M4 cell-based functional assay (calcium mobilization, CHO-K1 hM4-Gqi5 cells)
- runConditions: positive allosteric modulator activity, increase in the EC20 acetylcholine response, CHO-K1 hM4-Gqi5 cells; read-out: Human M4 EC50
property: EC50 (nM)
Number in nM, nothing else.

See these solved cases before continuing.
molecule	property	reportedValue
Cc1cc(C#N)cnc1N1CCc2ncc(-c3cn(C)nc3C)cc2C1	EC50	158
Cc1cc(C(=O)NC2CC(F)(F)C2)cnc1N1CCc2ncc(-c3cn(C)nc3C)cc2C1	EC50	752
Cc1nn(C)cc1-c1cnc2c(c1)CN(c1nc(NCC(C)(C)O)nc(C)c1C)CC2	EC50	735
Cc1cc(C#N)cnc1N1CCc2ncc(Oc3ccccc3F)cc2C1	EC50	96.9
Cc1c(C#N)nnc(N2CCc3ncc(Nc4ccccc4N(C)C)cc3C2)c1C	EC50	910

Here is another molecule to look at.
Entry `Cc1c(C(=O)NCc2ccncc2)nnc(N2CCc3ncc(C(F)(F)F)cc3C2)c1C` has what EC50?
129

----------
- tgt: human mAChR M4 (Homo sapiens, UniProt P08173)
- Construct: expressed in transfected cells
- procedureDetails: mAChR M4 cell-based functional assay (calcium mobilization, CHO-K1 hM4-Gqi5 cells)
- runConditions: positive allosteric modulator activity, increase in the EC20 acetylcholine response, CHO-K1 hM4-Gqi5 cells; read-out: Human M4 EC50
pEC50: −log10 of the molar value.
Cut-off 6 on pEC50, inclusive. At or above means yes; below means no.

Example cases with answers are listed next.
compound	tgt	assignedClass
Cc1cc(C(=O)N2CC3(COC3)C2)nnc1N1CCc2ncc(-c3ccnn3C)cc2C1	human mAChR M4 (Homo sapiens, UniProt P08173)	yes
Cc1cc(C(=O)NC2CC2)cnc1N1CCc2ncccc2C1	human mAChR M4 (Homo sapiens, UniProt P08173)	no
Cc1nc(C)c(C)c(N2CCc3ncc(C(F)(F)F)cc3C2)n1	human mAChR M4 (Homo sapiens, UniProt P08173)	yes

Is pEC50 at least 6? Consider `FC(F)(F)c1cnc2c(c1)CN(c1nc(Cl)nc3c1CCCC3)CC2`
no

# check: pEC50 of Cc1c(C#N)nnc(N2Cc3cc(C(F)(F)F)cnc3C(C)C2)c1C (stereo not shown) is greater than or equal to 6
yes

Is reported pEC50 greater than or equal to 6 here: `Cc1cc(C(=O)NCc2cncs2)nnc1N1CCc2ncc(C(F)(F)F)cc2C1`
yes

In plain terms: is recorded pEC50 at least 6 for `Cc1cc(C(=O)N2CCc3cccnc3C2)nnc1N1CCc2ncc(C(F)(F)F)cc2C1` ?
no

# bool: pEC50 of `COc1cc(CNC(=O)c2cnc(N3CCc4ncccc4C3)c(C)c2)ccc1F` >= 6
no
